These entries and their values trace back to patent US20170101476A1.

TARGET_OR_TEST_SYSTEM: T1, Cynomolgus CXCR2 (cynomolgus, UniProt Q28519 3-353 (rhesus entry))
T1 chain: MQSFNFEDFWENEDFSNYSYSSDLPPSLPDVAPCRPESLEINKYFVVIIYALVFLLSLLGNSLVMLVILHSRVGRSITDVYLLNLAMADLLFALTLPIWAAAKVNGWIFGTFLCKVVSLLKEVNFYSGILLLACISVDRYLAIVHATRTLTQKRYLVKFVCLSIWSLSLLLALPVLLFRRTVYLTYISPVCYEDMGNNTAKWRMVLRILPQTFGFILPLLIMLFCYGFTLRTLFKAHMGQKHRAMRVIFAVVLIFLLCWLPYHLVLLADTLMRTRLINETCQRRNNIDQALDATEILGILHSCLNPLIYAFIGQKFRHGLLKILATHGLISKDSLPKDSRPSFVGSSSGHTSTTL
TEST: cell-based or functional assay
binders and their reported Cynomologus WBSC IC50 (vs rhGROα)
Your answer should be a plain number; it is taken to be in nM.

BINDER	UNIT_OF_MEASUREMENT	Cynomologus WBSC IC50 (vs rhGROα)
CXCR20033 (bispecific antibody, not shown: small tags and cut ends) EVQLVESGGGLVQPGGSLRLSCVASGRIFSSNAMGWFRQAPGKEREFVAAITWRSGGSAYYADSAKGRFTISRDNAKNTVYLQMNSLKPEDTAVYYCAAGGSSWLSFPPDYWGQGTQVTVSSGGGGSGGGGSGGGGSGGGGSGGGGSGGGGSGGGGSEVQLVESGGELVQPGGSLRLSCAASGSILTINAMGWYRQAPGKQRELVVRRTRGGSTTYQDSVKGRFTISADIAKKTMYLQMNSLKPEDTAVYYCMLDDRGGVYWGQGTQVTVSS	nM	0.42
CXCR20020 (bispecific antibody, not shown: small tags and cut ends) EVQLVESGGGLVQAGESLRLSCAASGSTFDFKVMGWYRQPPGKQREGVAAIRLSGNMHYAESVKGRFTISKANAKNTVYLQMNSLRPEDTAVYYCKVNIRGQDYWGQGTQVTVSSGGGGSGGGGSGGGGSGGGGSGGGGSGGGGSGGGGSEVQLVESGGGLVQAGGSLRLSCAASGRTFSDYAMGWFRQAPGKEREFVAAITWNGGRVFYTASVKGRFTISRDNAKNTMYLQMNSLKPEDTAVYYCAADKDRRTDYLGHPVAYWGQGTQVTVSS	nM	0.12

Kindly consider the entry below.
(Q) GET /values?readout=Cynomologus WBSC IC50 (vs rhGROα)&item= CXCR20035 (other, not shown: small tags and cut ends) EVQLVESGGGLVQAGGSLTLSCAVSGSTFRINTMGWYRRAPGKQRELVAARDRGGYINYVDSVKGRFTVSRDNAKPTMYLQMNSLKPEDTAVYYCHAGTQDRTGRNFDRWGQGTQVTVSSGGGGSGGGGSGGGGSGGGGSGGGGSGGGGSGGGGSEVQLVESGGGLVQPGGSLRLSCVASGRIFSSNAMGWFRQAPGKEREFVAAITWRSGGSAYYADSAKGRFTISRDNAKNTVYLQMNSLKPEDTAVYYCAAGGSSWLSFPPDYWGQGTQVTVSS
(A) 0.43
